// Kd lookup, one value per entry
System Under Test: T1, Cyno CD47 ECD protein, His-tagged, monomer (cyno)
T1 construct: extracellular domain; also called cynomolgus CD47
Assay Overview: ProteOn SPR; mAb captured, ECD monomer as analyte

[
  {
    "Binder": "C47B220 (antibody, V domains shown, human IgG2sigma/kappa) VH: EVQLVQSGAEVKKPGESLKISCKGSGYSFTDSWIGWVRQMPGKGLEWMGIIYPGDSDTRYSPSFQGQVTISADKSISTAYLQWSSLKASDTAVYYCARVGRFASHQLDYWGQGTLVTVSS VL: EIVLTQSPATLSLSPGERATLSCRASQSVSNRQAWYQQKPGQAPRLLIHSASNRATGIPARFSGSGSGTDFTLTISSLEPEDFAVYYCQQGRSWPFTFGQGTKVEIK",
    "Measure Unit": "nM",
    "Kd": 3.74
  },
  {
    "Binder": "C47B216 (antibody, V domains shown, human IgG2sigma/kappa) VH: EVQLVQSGAEVKKPGESLKISCKGSGYSFDDSWIGWVRQMPGKGLEWMGIIYPGDSDTRYSPSFQGQVTISADKSISTAYLQWSSLKASDTAVYYCARVGRFASHQLDYWGQGTLVTVSS VL: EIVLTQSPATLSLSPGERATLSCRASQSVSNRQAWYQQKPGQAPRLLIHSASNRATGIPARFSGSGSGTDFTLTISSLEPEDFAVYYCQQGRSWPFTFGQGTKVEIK",
    "Measure Unit": "nM",
    "Kd": 2.74
  },
  {
    "Binder": "C47B229 (antibody, V domains shown, human IgG2sigma/kappa) VH: EVQLVQSGAEVKKPGESLKISCKGSGYSFDDAWIGWVRQMPGKGLEWMGIIYPGDSDTRYSPSFQGQVTISADKSISTAYLQWSSLKASDTAVYYCARVGRFASHQLDYWGQGTLVTVSS VL: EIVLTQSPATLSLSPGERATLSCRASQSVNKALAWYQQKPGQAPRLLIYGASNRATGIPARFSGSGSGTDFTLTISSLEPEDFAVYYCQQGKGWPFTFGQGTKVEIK",
    "Measure Unit": "nM",
    "Kd": 8.32
  },
  {
    "Binder": "C47B213 (antibody, V domains shown, human IgG2sigma/kappa) VH: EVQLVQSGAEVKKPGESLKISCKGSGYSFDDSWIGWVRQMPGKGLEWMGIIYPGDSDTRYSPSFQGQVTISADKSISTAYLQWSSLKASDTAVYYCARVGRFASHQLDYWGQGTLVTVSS VL: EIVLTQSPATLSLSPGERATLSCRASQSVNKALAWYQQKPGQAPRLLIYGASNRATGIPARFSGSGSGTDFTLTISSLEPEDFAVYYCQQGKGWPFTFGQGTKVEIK",
    "Measure Unit": "nM",
    "Kd": 4.25
  }
]

From: patent US20180250395A1
